pIC50: −log10 of the molar value.
Please find below pIC50 measurements for CRBN-DDB1 (Homo sapiens, UniProt Q96SW2), combined from several publications.

compound | pIC50
COc1cccc(CNC(=O)NCc2ccc3c(c2)C(=O)N(C2CCC(=O)NC2=O)C3)c1 (centres unmarked) | 6.44
NCC#Cc1cccc(Oc2cccc3c2C(=O)NC(=O)C3)c1 | 4.00 to 4.52
CC(=O)NCc1cccc(Oc2cccc3c2C(=O)NC(=O)C3=O)c1 | > 5.00
O=C1CCC(N2Cc3ccc(CNC(=O)Nc4cccc(Cl)c4F)cc3C2=O)C(=O)N1 (centres unmarked) | 6.23
O=C1NC(=O)c2c(Br)cccc21 | < 4.00

Short answer on CRBN-DDB1 (Homo sapiens, UniProt Q96SW2) for O=C1CCC(c2c(F)cc(N3CC(OC(=O)NC45CC(F)(C4)C5)C3)cc2F)C(=O)N1 (centres unmarked) , pIC50: 6.00 to 7.00

# pIC50 measured on CRBN-DDB1 (Homo sapiens, UniProt Q96SW2) for item Cc1ccc(NC(=O)NCc2ccc3c(c2)C(=O)N(C2CCC(=O)NC2=O)C3)nc1Cl (centres unmarked) = 5.94

Kindly note: CRBN-DDB1 (Homo sapiens, UniProt Q96SW2), O=C1CCC(c2c(F)cc(N3CC(NC(=O)Nc4cccc(OC(F)(F)F)c4)C3)cc2F)C(=O)N1 (centres unmarked) , pIC50 value reported: 6.00 to 7.00

The value of pIC50 recorded for O=C1CCC(c2c(F)cc(N3CC(NC(=O)Cc4ccc(C5CCC5)cc4)C3)cc2F)C(=O)N1 (centres unmarked) when tested on CRBN-DDB1 (Homo sapiens, UniProt Q96SW2) reads 6.00 to 7.00

Value (pIC50, CRBN-DDB1 (Homo sapiens, UniProt Q96SW2)) for record Cc1ccc(NC(=O)OC2CN(c3ccc(C4CCC(=O)NC4=O)cc3)C2)cc1Cl (centres unmarked) = < 6.00

Observed pIC50, CRBN-DDB1 (Homo sapiens, UniProt Q96SW2), Cc1c(Cl)cc(NC(=O)NCc2ccc3c(c2)C(=O)N(C2CCC(=O)NC2=O)C3)cc1CN1CCC(N(C)C)CC1 (centres unmarked) : 6.60

* * *

Several reports have described IC50 for CRBN-DDB1 (Homo sapiens, UniProt Q96SW2); a selection of those results is presented here.

Examples with their reported IC50 follow.
compound | IC50
CCCOc1ccc(N2C[C@@H]3C(=O)NC(=O)[C@@H]3C2)cc1 | > 100 µM
CC(C)(C)OC(=O)NCCCCCc1ccc(Oc2cccc3c2C(=O)NC(=O)C3)cc1 | > 100 µM
O=C1NC(=O)[C@@H]2CN(Cc3ccc(-c4ccccc4)cc3)C[C@H]12 | > 100 µM
O=C1CCC(N2Cc3ccc(CNC(=O)Nc4cccc(OC5CCNCC5)c4)cc3C2=O)C(=O)N1 (stereo not shown) | 0.24 µM
O=C1CCC(c2c(F)cc(N3CC(NC(=O)Nc4cc(F)cc(Cl)c4)C3)cc2F)C(=O)N1 (stereo not shown) | 0.1 to 1 µM

Let us examine a further case.
Value sought: IC50, system CRBN-DDB1 (Homo sapiens, UniProt Q96SW2), item O=C1CCC(N2Cc3ccc(CNC(=O)Nc4ccccc4Cl)cc3C2=O)C(=O)N1 (stereo not shown) . Result: 0.483 µM
